// data source = patent US11820787B2

Tested on: Aβ42
PROTOCOL DESCRIPTION: Aβ42 content in culture supernatant of HEK293APP/sw overexpression cells (ELISA, adjusted to total protein)
Assay type: cell-based
EXPERIMENTAL SETUP: secreted by APP/293 (HEK293APP/sw) cells; 400 μM, treated for 24 h; blank control 11.08
Class (required): determined from Aβ42 content; valid ranges are b0 = under 7 pmol/L, b1 = from 7 pmol/L up to 10 pmol/L, b2 = 10 pmol/L and over

Prompt line: Could you place C/C(=C(\CCOP(=O)(O)O)SC(=O)c1cccc([N+](=O)[O-])c1)N(C=O)Cc1cnc(C)nc1N in its proper category? Many thanks.
Response line: b0

Prompt line: Lab note: sort C/C(=C(\CCOP(=O)(O)O)SC(=O)c1cccc(F)c1)N(C=O)Cc1cnc(C)nc1N into the matching Aβ42 content band.
Response line: b1

Prompt line: # bin lookup: classify C/C(=C(\CCOP(=O)(O)O)SC(=O)c1ccc(Br)cc1)N(C=O)Cc1cnc(C)nc1N by its Aβ42 content
Response line: b1

Prompt line: Which bin should I file C/C(=C(\CCOP(=O)(O)O)SC(=O)c1cccc(Br)c1)N(C=O)Cc1cnc(C)nc1N under?
Response line: b0

Prompt line: Place this compound in its band: C/C(=C(\CCOP(=O)(O)O)SC(=O)c1ccc(F)cc1)N(C=O)Cc1cnc(C)nc1N
Response line: b2

Prompt line: Just checking, what class would you give C/C(=C(\CCOP(=O)(O)O)SC(=O)c1ccccc1[N+](=O)[O-])N(C=O)Cc1cnc(C)nc1N here?
Response line: b2

Prompt line: Looking at C/C(=C(\CCOP(=O)(O)O)SC(=O)c1ccc([N+](=O)[O-])cc1)N(C=O)Cc1cnc(C)nc1N , which class would you pick?
Response line: b0

Prompt line: State the class of the compound shown: C/C(=C(\CCOP(=O)(O)O)SC(=O)c1cccc(Cl)c1)N(C=O)Cc1cnc(C)nc1N
Response line: b0

Prompt line: Note: place this compound into its band. Item: C=Cc1cccc(C(=O)S/C(CCOP(=O)(O)O)=C(/C)N(C=O)Cc2cnc(C)nc2N)c1
Response line: b2

Prompt line: Category of C/C(=C(\CCOP(=O)(O)O)SC(=O)c1cccc(C)c1)N(C=O)Cc1cnc(C)nc1N , please.
Response line: b0

Prompt line: Classify this compound: C=Cc1ccc(C(=O)S/C(CCOP(=O)(O)O)=C(/C)N(C=O)Cc2cnc(C)nc2N)cc1
Response line: b2

Prompt line: Form: Item = C/C(=C(\CCOP(=O)(O)O)SC(=O)c1c(C)cccc1C)N(C=O)Cc1cnc(C)nc1N ; Class = ?
Response line: b2

Prompt line: State the class of the compound shown: COc1ccc(C(=O)S/C(CCOP(=O)(O)O)=C(/C)N(C=O)Cc2cnc(C)nc2N)cc1
Response line: b0

Prompt line: Which class is correct for the following compound? C/C(=C(\CCOP(=O)(O)O)SC(=O)c1c(F)cccc1F)N(C=O)Cc1cnc(C)nc1N
Response line: b1

###

Test system: Aβ42
PROTOCOL DESCRIPTION: Aβ42 content in culture supernatant of HEK293APP/sw overexpression cells (ELISA, adjusted to total protein)
Format: cell-based
EXPERIMENTAL SETUP: secreted by APP/293 (HEK293APP/sw) cells; 400 μM, treated for 24 h; blank control 11.08
Would you mind telling me the reported Aβ42 content of each entry?
Your answer should be a plain number; it is taken to be in pmol/L.

The compound listed as C/C(=C(\CCOP(=O)(O)O)SC(=O)c1ccc(Cl)cc1)N(C=O)Cc1cnc(C)nc1N has a reported Aβ42 content of 7.16

The recorded Aβ42 content for entry C/C(=C(\CCOP(=O)(O)O)SC(=O)c1ccc(O)cc1)N(C=O)Cc1cnc(C)nc1N equals 10.79

Record COc1cccc(C(=O)S/C(CCOP(=O)(O)O)=C(/C)N(C=O)Cc2cnc(C)nc2N)c1 . Reported Aβ42 content: 12.14

Reported Aβ42 content for C/C(=C(\CCOP(=O)(O)O)SC(=O)c1ccccc1)N(C=O)Cc1cnc(C)nc1N [Comparative Example 2, reference compound] was 5.04

So, CCOc1ccccc1C(=O)S/C(CCOP(=O)(O)O)=C(/C)N(C=O)Cc1cnc(C)nc1N ? Its Aβ42 content was 5.93
